target: T1, human pIgR extracellular domain (ECD) (human, UniProt P01833 19-638); assay: BLI; summary table, repeats Table 1
T1 construct: also called hpIgR ECD
T1 sequence (P01833 other isoform, or with tags, fused parts or gaps): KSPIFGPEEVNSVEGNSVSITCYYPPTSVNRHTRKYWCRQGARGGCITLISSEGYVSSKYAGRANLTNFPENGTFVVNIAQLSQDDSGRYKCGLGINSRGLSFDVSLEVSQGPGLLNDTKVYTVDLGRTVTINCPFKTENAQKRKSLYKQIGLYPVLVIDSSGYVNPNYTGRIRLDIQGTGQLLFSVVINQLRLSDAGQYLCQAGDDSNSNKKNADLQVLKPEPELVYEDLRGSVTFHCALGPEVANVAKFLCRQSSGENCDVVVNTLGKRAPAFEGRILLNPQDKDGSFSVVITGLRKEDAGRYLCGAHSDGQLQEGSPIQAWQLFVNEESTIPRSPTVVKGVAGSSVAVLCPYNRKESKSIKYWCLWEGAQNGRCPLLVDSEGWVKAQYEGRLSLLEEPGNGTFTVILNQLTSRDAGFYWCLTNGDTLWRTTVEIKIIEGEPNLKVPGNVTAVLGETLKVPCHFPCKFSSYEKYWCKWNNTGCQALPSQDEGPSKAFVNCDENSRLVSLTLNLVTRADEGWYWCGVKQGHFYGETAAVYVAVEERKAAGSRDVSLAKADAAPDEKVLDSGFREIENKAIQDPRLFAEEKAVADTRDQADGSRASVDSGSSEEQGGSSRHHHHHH
MEASUREMENT TYPE: Kd (nM)
Please reply with the bare figure in nM and do not write the unit itself.

For record VHH7-linker-mono-Fc protein (Fc fusion, made in CHO cells; also called VHH7-mono-Fc; hpIgR_198) EVQVVESGGGLVQAGGSLRLACVASRSIGSINVMGWYRQAPGKQRDLVARITGGGSTHYAESVKGRFTISRDNAKNTVYLQMNSLEPEDTAVYYCASMVNPIITAWGTIGVREIPDYDYWGQGTQVTVSSEPKTPKPQPQPQLQPQPNPTTESKSPKSPAPELLGGPSVFLFPPKPKDTLMISRTPEVTCVVVDVSHEDPEVKFNWYVDGVEVHNAKTKPREEQYNSTYRVVSVLTVLHQDWLNGKEYKCKVSNKALPAPIEKTISKAKGQPREPQVYTKPPSREEMTKNQVSLSCLVKGFYPSDIAVEWESNGQPENNYKTTVPVLDSDGSFRLASYLTVDKSRWQQGNVFSCSVMHEALHNHYTQKSLSLSPGK the listed Kd is 521
